Each item that follows carries a reported Log2 enrichment ratio.
Target: T1, Epstein-Barr virus BHRF1 a.a. 1-161 with C-terminal avi-6his tag (Epstein-Barr virus)
T1 construct: also called EBV BHRF1; BHRF1-biotin
T1 chain: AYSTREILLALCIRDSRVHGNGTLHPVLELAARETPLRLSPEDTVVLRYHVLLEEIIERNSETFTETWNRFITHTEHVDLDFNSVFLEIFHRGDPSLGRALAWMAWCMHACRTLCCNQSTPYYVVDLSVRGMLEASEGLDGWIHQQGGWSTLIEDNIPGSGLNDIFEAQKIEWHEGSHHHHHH
Experiment: yeast display library, FACS sort at 100 nM BHRF1, deep sequencing
Give the quantity in log2, number only.

Q) Item Index 36 (designed binder) GYTKEWIRDRAKEELDRFADEAKDKADKIRDDFEKRDDKNQIAAELTKKWIAAELEAIGDAFNRAEEAKERLKKLLKLGLTRKEEAEEAAEKLEKLEKEASEKLSKIAHEVSKHDDQG has what recorded Log2 enrichment ratio?
A) -3.6

Continue with the next binder.
Q) Item Index 09 (designed binder) GKEAKKRIQEALEEAKRKAEKLLREHEKKKKEHLLGDKRDREKTEETDKWIAEALMLIGDIFNLYMKFEWEKEREKKLGLLREEEEKEVEDEAKDAYLKALKLAYLVSKKGHEVAELG has what recorded Log2 enrichment ratio?
A) -2.55
